Target: T1, recombinant human CD14 (B294801, histidine tagged) (Homo sapiens, UniProt P08571)
T1 construct: His; purchased Shanghai BaiYing Biotechnology Co., Ltd B294801 (Batch number 20200518A22)
T1 sequence (P08571 20-345): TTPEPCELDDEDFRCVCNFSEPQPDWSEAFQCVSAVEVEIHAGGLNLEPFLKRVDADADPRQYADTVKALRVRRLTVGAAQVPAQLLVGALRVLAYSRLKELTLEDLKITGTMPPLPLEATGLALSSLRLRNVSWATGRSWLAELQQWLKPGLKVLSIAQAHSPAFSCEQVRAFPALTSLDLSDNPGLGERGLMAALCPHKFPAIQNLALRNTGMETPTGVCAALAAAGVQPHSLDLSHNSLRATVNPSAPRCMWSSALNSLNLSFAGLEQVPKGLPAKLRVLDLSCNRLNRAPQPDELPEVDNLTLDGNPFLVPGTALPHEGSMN
Assay: Biacore 8K kinetic and affinity test of humanized antibodies (Example 8)
Type: binding
Settings: Biacore 8K, analyte B294801 0.78125-25 nM, capture 1 μg/mL
Reported metric: koff (1:1 binding) (s⁻¹)
Answers are plain numbers, in s⁻¹.

Molecule: D6DD3D012: humanized anti-CD14 antibody; VH SEQ ID NO: 45, VL SEQ ID NO: 47 (antibody, V domains shown) VH: QVQLQESGPGLVKPSQTLSLTCTVSGGSISSDSAWNWIRQHPGKGLEWIGYISYSGSTSYNPSLKSRVTISRDTSKNQFSLKLSSVTAADTAVYYCVRGLRFAYWGQGTLVTVSS VL: DIQLTQSPSSLSASVGDRVTITCRASESVDSYVNSFLHWYQQKPGKAPKLLIYRASNLQSGVPSRFSGSGSRTDFTLTISSLQPEDVATYYCQQSNEDPYTFGQGTKLEIK
Unit abbrev: s⁻¹
Reading: 0.00293

// Input: D6DD3D005: humanized anti-CD14 antibody; VH SEQ ID NO: 17, VL SEQ ID NO: 19 (antibody, V domains shown) VH: QVQLQESGPGLVKPSETLSLTCTVSGYSITSDSAWNWIRQPPGKGLEWIGYISYSGSTSYNPSLKSRVTISRDTSKNQFSLKLSSVTAADTAVYYCVRGLRFAYWGQGTLVTVSS VL: EIVLTQSPATLSLSPGERATLSCRASESVDSYVNSFLHWYQQKPGQAPRLLIYRASNLQSGIPARFSGSGSRTDFTLTISSLEPEDVAVYYCQQSNEDPYTFGQGTKLEIK . Output its koff (1:1 binding) only.
0.000798
